target: eIF4E:mRNA binding in cells (Mus musculus); construct: endogenous in cells; experiment: immunopurification of eIF4E from treated cells and semiquantitative RT-PCR; settings: nuclear eIF4E; read-out: apparent EC50 inhibition of eIF4E binding to cyclin D1 mRNA in cells
Sequence (P63073 2-217 limits assumed): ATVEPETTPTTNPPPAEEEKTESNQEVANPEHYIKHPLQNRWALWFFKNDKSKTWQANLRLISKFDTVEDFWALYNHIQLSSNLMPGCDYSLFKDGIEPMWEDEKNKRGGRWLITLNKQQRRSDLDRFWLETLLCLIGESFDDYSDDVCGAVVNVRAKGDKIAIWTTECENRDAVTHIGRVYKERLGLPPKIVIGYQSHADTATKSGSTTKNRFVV
reported metric: EC50

Return the recorded EC50 value; entry: NC(=O)c1ncn([C@@H]2O[C@H](CO)[C@@H](O)[C@H]2O)n1 [Ribavirin]
~1 µM
